Measured IC50, listed per entry for reference.
- Tested on: store-operated calcium entry (SOCE) in RBL-2H3 rat mast cells
- protocol_details: SOCE inhibition, Fura-2 Ca2+ bioassay, thapsigargin-induced, RBL-2H3 cells
- Assay type: cell-based
- run_conditions: Rattus norvegicus, RBL-2H3, read-out: IC50 SOCE RBL-2H3, Table 5; individual cannabinoids; RBL-2H3
Reply numerically in µg/mL, unit not repeated.

Reference set (3 entries):
structure_string	IC50 (µg/mL)
CCCc1cc2c(c(O)c1C(=O)O)[C@@H]1C=C(C)CC[C@H]1C(C)(C)O2	20.2
CCCCCc1cc(O)c2c(c1)OC(C)(C)[C@@H]1CC=C(C)C[C@@H]21	39.7
CCCCCc1cc2c(c(O)c1C(=O)O)[C@@H]1C=C(C)CC[C@H]1C(C)(C)O2	0.57

Record `C=C(C)[C@@H]1CCC(C)=C[C@H]1c1c(O)cc(CCC)cc1O` , field IC50: 0.17

For `C=C(C)c1ccc(C)cc1-c1c(O)cc(CCCCC)cc1O` the compound record lists IC50 as 19

Recorded result, `CCCCCc1cc(O)c2c(c1)OC(C)(C)[C@@H]1CCC(C)=C[C@@H]21` , IC50: 0.97

Just so you know, measured IC50 for `CCCCCc1cc(O)c(C/C=C(\C)CCC=C(C)C)c(O)c1C(=O)O` came out at 0.27

Memo: `CCCCCc1cc(O)c2c(c1)OC(C)(C)c1ccc(C)cc1-2` , reported IC50: 33.4

Reported IC50 ( `CCCCCc1cc(O)c(C/C=C(\C)CCC=C(C)C)c(O)c1` ) = 3.29

The compound `C=C(C)[C@@H]1CCC(C)=C[C@H]1c1c(O)cc(CCCCC)cc1O` showed IC50 equal to 2.53

IC50 in this record for `CCCc1cc(O)c(C/C=C(\C)CCC=C(C)C)c(O)c1C(=O)O` : 2.53

Lab note: `C=C(C)[C@@H]1CCC(C)=C[C@H]1c1c(O)cc(CCCCC)c(C(=O)O)c1O` gave IC50 of 2.4

---

- Tested on: store-operated calcium entry (SOCE) in Jurkat T cells
- protocol_details: SOCE inhibition, Fura-2 Ca2+ bioassay, thapsigargin-induced, Jurkat cells
- Assay type: cell-based, human
- run_conditions: Homo sapiens, Jurkat, read-out: IC50 inhibition of SOCE-mediated increases in intracellular Ca2+, FIG. 15; cell type not stated there
quantity: IC50

Just so you know, measured IC50 for `CCCCCc1cc(O)c(C/C=C(\C)CCC=C(C)C)c(O)c1C(=O)O` came out at ~2 µM
